target: hNK1R (Homo sapiens, UniProt P25103); construct: host or cells: COS-7; assay: IP3 assay (inositol trisphosphate, 3H-myoinositol) in transiently transfected COS-7 cells; assay type: cell-based; details: COS-7 cells; figure legends: percent of 10^-6 M NKA
Sequence (P25103 whole entry): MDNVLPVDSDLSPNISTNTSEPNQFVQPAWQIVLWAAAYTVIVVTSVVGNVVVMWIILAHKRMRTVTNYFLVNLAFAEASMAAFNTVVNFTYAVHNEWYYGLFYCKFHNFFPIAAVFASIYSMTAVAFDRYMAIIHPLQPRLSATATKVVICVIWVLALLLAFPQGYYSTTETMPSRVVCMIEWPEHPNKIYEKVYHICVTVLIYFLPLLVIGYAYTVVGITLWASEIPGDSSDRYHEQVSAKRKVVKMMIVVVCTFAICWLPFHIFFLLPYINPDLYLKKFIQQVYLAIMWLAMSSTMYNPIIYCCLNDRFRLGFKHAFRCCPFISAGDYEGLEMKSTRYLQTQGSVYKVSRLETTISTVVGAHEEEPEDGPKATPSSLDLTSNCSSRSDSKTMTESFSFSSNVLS
Numbered stars: 1 amine (or outer) side, 2 acyl side, 3 side chain; on linkers, the order of the positions; unused ones are H or OH. Square brackets hold non-standard residues; d marks the D form. Peptide text beside a SMILES is read from it. * marks the point of attachment. C18 diacid = O=C(O)CCCCCCCCCCCCCCCCC(=O)*; γGlu = O=C(O)[C@H](CCC(=O)[*:2])N[*:1]; Stearoyl = CCCCCCCCCCCCCCCCCC(=O)*; NMeL = CN[C@@H](CC(C)C)C(=O)O; Nle = CCCC[C@H](N)C(=O)O; AEEA = NCCOCCOCC(=O)O
metric: hNK1R, IP3 Efficacy
The answer consists of two parts: a number and, after it, its unit.

- compound: "CCCCCCCCCCCCCCCCCC(=O)N[C@@H](CCC(=O)NCCOCCOCC(=O)NCCOCCOCC(=O)N[C@@H](CC(=O)O)C(=O)N[C@@H](CCCCN)C(=O)N[C@@H](Cc1ccc(O)cc1)C(=O)N[C@H](C(=O)NCC(=O)N(C)[C@@H](CC(C)C)C(=O)N[C@@H](CCCC)C(N)=O)C(C)C)C(=O)O [compound 390, *Asp;Lys;Tyr;Val;Gly;NmLeu;Nle;NH2] ({Stearoyl-γGlu-AEEA-AEEA}-DKYVG[NMeL][Nle]-NH2)"
  hNK1R, IP3 Efficacy: "88%"

Hi! What's the reported hNK1R, IP3 Efficacy for CCCC[C@H](NC(=O)[C@H](CC(C)C)N(C)C(=O)CNC(=O)[C@@H](NC(=O)[C@H](Cc1ccc(I)cc1)NC(=O)[C@H](CCCCN)NC(=O)[C@H](CC(=O)O)NC(=O)COCCOCCNC(=O)COCCOCCNC(=O)CC[C@H](NC(=O)CCCCCCCCCCCCCCCCC(=O)O)C(=O)O)C(C)C)C(N)=O on hNK1R (Homo sapiens, UniProt P25103)?
40%

Okay, and CC(C)C[C@@H](C(=O)N[C@@H](Cc1ccccc1)C(N)=O)N(C)C(=O)CNC(=O)[C@@H](NC(=O)[C@H](Cc1ccc(O)cc1)NC(=O)[C@H](CCCCN)NC(=O)[C@H](CC(=O)O)NC(=O)COCCOCCNC(=O)COCCOCCNC(=O)CC[C@H](NC(=O)CCCCCCCCCCCCCCCCC(=O)O)C(=O)O)C(C)C [compound 353, *Asp;Lys;Tyr;Val;Gly;NmLeu;Phe;NH2] ({C18 diacid-γGlu-AEEA-AEEA}-DKYVG[NMeL]F-NH2) ?
20%

Entry source: patent US20230406883A1
